Source of measurements: paper PMC4336329

# target.entity: human ether-à-go-go-related gene (hERG) potassium channel (human, UniProt Q12809);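 further: peak tail current of the secondary pulse compared with the same well before compound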
# Sequence (Q12809 whole entry, looked up): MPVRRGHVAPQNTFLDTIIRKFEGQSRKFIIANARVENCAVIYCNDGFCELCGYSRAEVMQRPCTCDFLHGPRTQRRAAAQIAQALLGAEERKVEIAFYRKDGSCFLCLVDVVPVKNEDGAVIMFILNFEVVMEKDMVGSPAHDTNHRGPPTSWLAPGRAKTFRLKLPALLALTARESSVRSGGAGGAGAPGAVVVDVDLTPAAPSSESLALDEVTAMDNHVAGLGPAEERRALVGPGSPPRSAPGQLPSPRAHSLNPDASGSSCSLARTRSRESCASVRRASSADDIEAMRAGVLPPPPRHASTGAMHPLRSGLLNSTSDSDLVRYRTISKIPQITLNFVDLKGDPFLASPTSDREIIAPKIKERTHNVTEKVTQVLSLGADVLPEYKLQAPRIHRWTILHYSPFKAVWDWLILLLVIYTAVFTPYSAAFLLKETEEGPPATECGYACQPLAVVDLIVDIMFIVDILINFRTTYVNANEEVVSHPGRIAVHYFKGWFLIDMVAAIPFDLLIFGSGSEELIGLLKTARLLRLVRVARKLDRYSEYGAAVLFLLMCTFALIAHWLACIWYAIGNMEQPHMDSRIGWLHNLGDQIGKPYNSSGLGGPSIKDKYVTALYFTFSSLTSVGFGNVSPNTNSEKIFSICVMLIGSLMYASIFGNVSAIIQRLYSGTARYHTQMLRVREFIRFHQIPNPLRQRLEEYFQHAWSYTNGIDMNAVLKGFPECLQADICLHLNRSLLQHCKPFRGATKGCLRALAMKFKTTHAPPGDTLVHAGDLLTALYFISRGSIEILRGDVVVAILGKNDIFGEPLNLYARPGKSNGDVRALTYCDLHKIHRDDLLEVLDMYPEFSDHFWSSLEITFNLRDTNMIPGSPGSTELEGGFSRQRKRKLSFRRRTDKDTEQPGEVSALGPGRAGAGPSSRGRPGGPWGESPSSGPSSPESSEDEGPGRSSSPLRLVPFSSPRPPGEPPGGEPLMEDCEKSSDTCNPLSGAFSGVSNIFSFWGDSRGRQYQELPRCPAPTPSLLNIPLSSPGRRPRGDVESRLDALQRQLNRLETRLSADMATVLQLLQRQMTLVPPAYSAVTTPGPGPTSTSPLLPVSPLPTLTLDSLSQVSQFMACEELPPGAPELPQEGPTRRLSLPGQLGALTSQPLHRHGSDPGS
# protocol.text: primary screen, population patch clamp on CHO cells stably expressing hERG; higher = less effect of the substance
The campaign covered roughly 310,000 compounds. About 14,000 (4.5%) showed an effect of 50% or more. The effect is printed as a negative number. Shown is part of a subset that was picked to be rich in strong results.
parameter: hERG current change (%, negative = inhibition) at 10uM (%)
Answers are plain numbers, in %.

| molecule | target.entity | value.observed |
| --- | --- | --- |
| COCCNC(=O)CCn1nc(-c2ccc(Cl)cc2)ccc1=O | human ether-à-go-go-related gene (hERG) potassium channel (human, UniProt Q12809) | -30.2 |
| O=C(c1ccc(-c2ccccc2)cc1)N1CCN(c2ccccn2)CC1 | human ether-à-go-go-related gene (hERG) potassium channel (human, UniProt Q12809) | -36.4 |
| Cc1ccc(OCC(=O)N2CCN(C3CCC(c4ccccc4)CC3)CC2)cc1.O=C(O)C(=O)O (stereo not drawn) | human ether-à-go-go-related gene (hERG) potassium channel (human, UniProt Q12809) | -62.8 |
| COc1ccc(OCC(=O)N2CCN(C(=O)Cc3ccccc3)CC2)cc1 | human ether-à-go-go-related gene (hERG) potassium channel (human, UniProt Q12809) | -32.5 |
| Cc1ccc(C)c(-n2c(SCC(=O)Nc3nnc(C)s3)nnc2-c2ccoc2C)c1 | human ether-à-go-go-related gene (hERG) potassium channel (human, UniProt Q12809) | 5.96 |
| CCc1nnc(NC(=O)CSc2nnc(-c3ccoc3C)n2-c2ccc(C)cc2)s1 | human ether-à-go-go-related gene (hERG) potassium channel (human, UniProt Q12809) | -26.4 |
| C/C(=N\NC(=O)COc1ccccc1[N+](=O)[O-])c1cccs1 | human ether-à-go-go-related gene (hERG) potassium channel (human, UniProt Q12809) | 10.3 |
| CN(C)CCNC(=O)CCn1nc(-c2ccc(Cl)cc2)ccc1=O | human ether-à-go-go-related gene (hERG) potassium channel (human, UniProt Q12809) | -15.4 |

Your task in this section: give hERG current change (%, negative = inhibition) at 10uM for each listed record.
1. Cc1nnc(NC(=O)/C=C/c2ccco2)s1
2. CCc1nnc(NC(=O)CSc2nnc(-c3ccoc3C)n2-c2ccccc2)s1
3. Cc1cc(N(CN2CCCC2=O)C(=O)c2ccc(OC(C)C)cc2)no1
4. Cc1cccc(-n2c(SCC(=O)Nc3nnc(C)s3)nnc2-c2ccoc2C)c1

26.3
-3.54
-2.94
-63.9

----------
# target.entity: human ether-à-go-go-related gene (hERG) potassium channel (human);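 further: peak tail current of the secondary pulse compared with the same well before compound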
# protocol.text: primary screen, population patch clamp on CHO cells stably expressing hERG; higher = less effect of the substance
In all, about 310,000 compounds went through this assay and about 14,000 (4.5%) showed an effect of 50% or more. The effect is printed as a negative number. Only a selection was taken, and strong results are over-represented in it overall.
parameter: hERG current change (%, negative = inhibition) at 10uM (%)
Give bare numbers, in %.

Some molecules with known hERG current change (%, negative = inhibition) at 10uM results, for comparison:
| molecule | value.units | value.observed |
| --- | --- | --- |
| NC(=O)C1CCN(CC(=O)Nc2ccccc2Sc2ccccc2)CC1 | % | -35.3 |
| CCOC(=O)c1ccccc1NC(=O)c1c(F)c(F)c(F)c(F)c1F | % | 10.2 |

Hi there! I need hERG current change (%, negative = inhibition) at 10uM for each item below, if you can.
1. CC1CCN(CCCCOc2ccccc2[N+](=O)[O-])CC1.O=C(O)C(=O)O
2. CC1CCN(S(=O)(=O)c2ccc([N+](=O)[O-])cc2)CC1
3. COc1ccc(C(=O)C2CCCN(Cc3nc4ccccc4nc3C)C2)cc1OC (centres unmarked)
4. COCc1ccc(C(=O)N2CCCC(N3CCN(c4ccccc4C)CC3)C2)s1 (centres unmarked)
5. C#CCN1CCN(c2cccc(C(F)(F)F)c2)CC1

-26.3
-3.23
-84.9
-34.7
8.78

Hi, could you look up hERG current change (%, negative = inhibition) at 10uM for each item in my list?
1. COC(=O)c1sccc1NC(=O)c1cc(-c2ccc(C)cc2C)nc2ccccc12
2. S=C1CCC(c2ccc(Cl)cc2)=NN1c1ccccc1

[6.94, 4.79]

Give one value of hERG current change (%, negative = inhibition) at 10uM per listed molecule.
1. CC1CCN(CC(CS(=O)(=O)c2ccc([N+](=O)[O-])cc2)N2CCC(C)CC2)CC1 (centres unmarked)
2. CCOc1ccc(CN2CCN(CCCn3cccn3)CC2CCO)cc1 (centres unmarked)

1: -62.1; 2: -80.1

Hey, can you go through the list below and give me hERG current change (%, negative = inhibition) at 10uM for every item?
1. Cc1ccccc1-n1ncc2c1CC(C)(C)CC2NC(=O)CN1CCCC1=O (centres unmarked)
2. COC(=O)C1=C(c2ccc(S(C)(=O)=O)cc2)C[C@@H]2CC[C@H]1N2C(=O)NCCNC(C)=O
3. Nc1ccc(CCN2CCN(c3cccc(C(F)(F)F)c3)CC2)cc1

9.7
14.6
-67.2

----------
# target.entity: human ether-à-go-go-related gene (hERG) potassium channel (human, UniProt Q12809);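 further: peak tail current of the secondary pulse compared with the same well before compound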
# protocol.text: primary screen, population patch clamp on CHO cells stably expressing hERG; higher = less effect of the substance
Screen size: about 310,000 compounds; about 14,000 (4.5%) showed an effect of 50% or more. The effect is printed as a negative number. Only a selection was taken, and strong results are over-represented in it overall.
Param threshold (-30%) applies to hERG current change (%, negative = inhibition) at 10uM; output yes (1) when value >= threshold, no (0) when value < threshold.

Below are worked cases with known answers.
| compound | assigned.label |
| --- | --- |
| O=C(OCCN1CCN(C2=NS(=O)(=O)c3ccccc32)CC1)c1cccc(Br)c1 | no (0) |
| O=C(O)c1ccc(Cl)c(S(=O)(=O)Nc2ccc(OCc3ccccc3)cc2)c1 | yes (1) |
| Cc1ccccc1CN1CCC(n2nccc2NC(=O)c2cccnc2)CC1 | yes (1) |
| COc1ccc(/C=C(/NC(=O)c2ccccc2)C(=O)NCc2ccncc2)cc1 | no (0) |
| C/C(=N\NC(=O)c1nnn(-c2nonc2N)c1-c1ccc2c(c1)OCO2)c1cccs1 | yes (1) |
| O=c1c2ccccc2nc2n1CCN2Cc1ccc(Cl)cc1 | no (0) |
| O=C(NCCCN1CCC(Cc2ccccc2)CC1)c1ccc2nc(N3CCOCC3)sc2c1 | no (0) |
| CC(=O)NS(=O)(=O)c1ccc(NC(=O)c2ccc(NC(=O)c3cccs3)cc2)cc1 | yes (1) |
| O=C(O)CCCn1cc(NC(=O)c2ccco2)cn1 | yes (1) |
| O=C(NCCc1ccccc1)c1ccc2nc(N3CCOCC3)sc2c1 | yes (1) |

Hello, I need to know if O=C(Nc1ccc(O)cc1)C1CCCO1 (centres unmarked) has measured hERG current change (%, negative = inhibition) at 10uM not below -30%. Thanks! yes (1)

Does COC(=O)c1cc(-c2c(-c3ccc4c(c3)OCO4)noc2-c2ccsc2)cc([N+](=O)[O-])c1 have a reported hERG current change (%, negative = inhibition) at 10uM of at least -30%? yes (1)

Reported hERG current change (%, negative = inhibition) at 10uM reaches at least -30% for CCN(CC)c1ccc(NC(=S)NCC2CCCO2)cc1 (centres unmarked) ? yes (1)

Say whether COc1ccc(/C=C(/NC(=O)c2ccc(C)cc2)C(=O)NCc2ccncc2)cc1 shows hERG current change (%, negative = inhibition) at 10uM of -30% or more. no (0)

Identify whether the reported hERG current change (%, negative = inhibition) at 10uM of the following compound is -30% or greater: O=C(NCc1ccc(F)cc1)C(=O)NCC1OCCN1C(=O)c1ccc(Cl)cc1 (centres unmarked) no (0)

Can O=C(C1CCCCN1S(=O)(=O)c1ccccc1)N1CCCCC1 (centres unmarked) be said to have hERG current change (%, negative = inhibition) at 10uM at or above -30%? yes (1)

Exam item: decide whether the reported hERG current change (%, negative = inhibition) at 10uM for Cc1cc(OCC(=O)Nc2cccnc2)c2c(C)cc(=O)oc2c1 is at least -30%. yes (1)

Tell me whether hERG current change (%, negative = inhibition) at 10uM is at least -30% here: CCC1(c2ccc(C)cc2)NC(=O)N(CC(=O)Nc2cccc(S(=O)(=O)N3CCCC3)c2)C1=O (centres unmarked) yes (1)

Decide: hERG current change (%, negative = inhibition) at 10uM of Cc1ccc(C)c(S(=O)(=O)N2CCN(C(=O)CCNC(=O)c3ccc(Br)cc3)CC2)c1 >= -30%? no (0)
